Data provenance: patent US20220177587A1

- Measured target: huPD-L1 (Homo sapiens, UniProt Q9NZQ7)
- Sequence (Q9NZQ7 19-290): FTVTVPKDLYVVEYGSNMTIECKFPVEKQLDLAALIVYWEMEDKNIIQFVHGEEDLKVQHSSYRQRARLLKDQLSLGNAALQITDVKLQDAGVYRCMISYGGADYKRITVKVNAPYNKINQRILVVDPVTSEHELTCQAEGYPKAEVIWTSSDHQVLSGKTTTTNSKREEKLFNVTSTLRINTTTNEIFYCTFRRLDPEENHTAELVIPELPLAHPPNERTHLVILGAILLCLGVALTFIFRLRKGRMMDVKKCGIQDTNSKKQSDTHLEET
- Test description: Flow binding to CHO cells stably expressing PD-L1
- Design: huCTLA4 and huPD-L1, full-length mammalian surface expression constructs were generated; expressed in transfected cells; host or cells: CHO cells, lentiviral transduction, sorted to >98% purity
- Reported conditions: Table E19; CHO cells stably expressing PD-L1; 33.3 nM
Result type: PD-L1 MFI at 33.3 nM
Simply state the number, no unit and no words.

E35D/M47V/V68M/K89N (protein) VIHVTKEVKEVATLSCGHNVSVEELAQTRIYWQKDKKMVLTMMSGDVNIWPEYKNRTIFDITNNLSIMILALRPSDEGTYECVVLKYENDAFKREHLAEVTLSVKAD    21827

The value of PD-L1 MFI at 33.3 nM measured for the molecule D46V/L85Q (protein) VIHVTKEVKEVATLSCGHNVSVEELAQTRIYWQKEKKMVLTMMSGVMNIWPEYKNRTIFDITNNLSIVILALRPSDEGTYECVVQKYEKDAFKREHLAEVTLSVKAD turned out to be 2197

Note to self: PD-L1 MFI at 33.3 nM recorded for E35D/M47V/N48K/V68M (protein) VIHVTKEVKEVATLSCGHNVSVEELAQTRIYWQKDKKMVLTMMSGDVKIWPEYKNRTIFDITNNLSIMILALRPSDEGTYECVVLKYEKDAFKREHLAEVTLSVKAD was 23479
